Where do these numbers come from? They come from PubChem BioAssay (NCI).

System: UO-31 renal
Experiment: NCI-60 one-dose screen, 48 h (100 = growth as untreated, 0 = no growth, -100 = all killed)
Conditions: 10 µM
Compounds without any hit were thinned out: in the full panel of roughly 83,000, 20% have a hit.
Listed here: items and their measured growth.
Report the figure in % without appending any unit label.

compound	result
CC(C)N=C([Se])NC(=O)c1ccccc1	-99
CC(C)C[C@H](NC(=O)CNC(=O)C[C@H]1O[C@@H]2OC3(C)CC[C@H]4[C@H](C)CC[C@@H]([C@H]1C)[C@@]24OO3)B(O)O	15.5
O=C(/C=C/c1cccc(Br)c1)c1nc2ccccc2n1Cc1ccc(F)cc1	41.8
CC(C)N=C([Se])NC(=O)c1cccs1	12.4
COC(=O)C[C@](O)(CCCC(C)C)C(=O)O[C@H]1C(OC)=C[C@@]23CCCN2CCc2cc4c(cc2[C@@H]13)OCO4	6.22
O=C(/C=C/c1ccccc1)c1nc2ccccc2n1Cc1ccc(Br)cc1	-94.9
C[C@H]1[C@@H](CC(=O)N[C@@H](Cc2coc3ccccc23)B(O)O)O[C@@H]2OC3(C)CC[C@H]4[C@H](C)CC[C@@H]1[C@@]24OO3	18.3
CCOC(=O)C1=C(Nc2ccccc2)C(=O)OC12C(=O)Nc1ccccc12 (centres undefined)	73.2

Then there is this compound:
Exercise: # growth lookup, item `O=C(/C=C/c1ccccc1)c1nc2ccccc2n1Cc1ccc(F)cc1`
Key: -78.5

---

Tested on: HCC-2998 colon
Experiment: NCI-60 one-dose screen, 48 h (100 = growth as untreated, 0 = no growth, -100 = all killed)
Conditions: 10 µM
About 83,000 compounds went through this panel and 20% of them were active in at least one assay; those are over-represented in the sample as a whole.
measured quantity: growth (%)
Report the figure in % without appending any unit label.

compound	tested target	unit label	result
O=C(/C=C/c1cccc(Br)c1)c1nc2ccccc2n1Cc1ccc(Br)cc1	HCC-2998 colon	%	-94.7

Exercise: Please provide the recorded growth for `COc1cc2cc(C(=O)N3C[C@@H](CCl)c4c3cc(OC(=O)N3CCN(C(=O)CCC(=O)N5CCN(C)CC5)[C@@H]5CSSC[C@@H]53)c3ccccc43)[nH]c2c(OC)c1OC` , tested on HCC-2998 colon.
Key: -99.1

Exercise: Please provide the recorded growth for `CC1=C(C=O)C2=C(C)C3(CC3)[C@@](C)(O)C(=O)C2=C1` , tested on HCC-2998 colon.
Key: 17.2

Exercise: Please provide the recorded growth for `COc1cc(OC)c(/C=C/C(=O)c2nc3ccccc3n2Cc2ccc(F)cc2)c(OC)c1` , tested on HCC-2998 colon.
Key: 105

Exercise: Please provide the recorded growth for `O=C(/C=C/c1ccc(F)cc1)c1nc2ccccc2n1Cc1ccc(F)cc1` , tested on HCC-2998 colon.
Key: -78.9

Exercise: Please provide the recorded growth for `CC1=C2C(=C[C@@](C)(COP(=O)(Oc3ccccc3)Oc3ccccc3)[C@@H]2O)C(=O)[C@@](C)(O)C12CC2` , tested on HCC-2998 colon.
Key: -85.5

Exercise: Please provide the recorded growth for `C=CC[Se]C(=O)c1cncc(C(=O)[Se]CC=C)c1` , tested on HCC-2998 colon.
Key: -92.6

Exercise: Please provide the recorded growth for `CC(=O)Oc1ccccc1C(=O)NC([Se])=NC1CCCCC1` , tested on HCC-2998 colon.
Key: 28.1

Exercise: Please provide the recorded growth for `O=C(/C=C/c1ccc(Cl)cc1)c1nc2ccccc2n1Cc1ccc(Br)cc1` , tested on HCC-2998 colon.
Key: 65.3

Exercise: Please provide the recorded growth for `COc1cc2cc(C(=O)N3C[C@@H](CCl)c4c3cc(OC(=O)N3CCN(C)[C@@H]5CSSC[C@@H]53)c3ccccc43)[nH]c2c(OC)c1OC` , tested on HCC-2998 colon.
Key: -53.8

Exercise: Please provide the recorded growth for `O=C(/C=C/c1ccc(F)cc1)c1nc2ccccc2n1Cc1ccc(Br)cc1` , tested on HCC-2998 colon.
Key: -97.6

Exercise: Please provide the recorded growth for `O=C(NC([Se])=NC1CCCCC1)c1ccc2c(c1)OCO2` , tested on HCC-2998 colon.
Key: 74.1

Exercise: Please provide the recorded growth for `CC[C@]12C=CCN3CC[C@@]4(c5ccc(OC)cc5N(C)[C@H]4[C@@](O)(C(=O)OC)[C@@H]1OC(=O)CCCC[P+](c1ccc(OC)cc1)(c1ccc(OC)cc1)c1ccc(OC)cc1)[C@@H]32` , tested on HCC-2998 colon.
Key: -88.4

Exercise: Please provide the recorded growth for `O=C(/C=C/c1ccccc1)c1nc2ccccc2n1Cc1ccc(F)cc1` , tested on HCC-2998 colon.
Key: -95.8

Exercise: Please provide the recorded growth for `O=C(/C=C/c1cccc(Br)c1)c1nc2ccccc2n1Cc1ccc(F)cc1` , tested on HCC-2998 colon.
Key: 25

Exercise: Please provide the recorded growth for `C[C@H]1[C@H](OC(=O)CCC(=O)N(CCCc2cn(-c3ccc(C#N)cc3)nn2)CCNc2ccnc3cc(Cl)ccc23)O[C@@H]2OC3(C)CC[C@H]4[C@H](C)CC[C@@H]1[C@@]24OO3` , tested on HCC-2998 colon.
Key: 70.3

Exercise: Please provide the recorded growth for `O=C(/C=C/c1ccccc1)c1nc2ccccc2n1Cc1ccc(Br)cc1` , tested on HCC-2998 colon.
Key: -97.3

Exercise: Please provide the recorded growth for `COc1ccc2cc([C@H](C)C(=O)[Se]CCC#N)ccc2c1` , tested on HCC-2998 colon.
Key: 10.1

Exercise: Please provide the recorded growth for `C[C@H]1[C@H](OC(=O)CCC(=O)N(CCCc2cn(-c3ccc(CN4CCOCC4)cc3)nn2)CCNc2ccnc3cc(Cl)ccc23)O[C@@H]2OC3(C)CC[C@H]4[C@H](C)CC[C@@H]1[C@@]24OO3` , tested on HCC-2998 colon.
Key: 40.1

Exercise: Please provide the recorded growth for `CC(C)N=C([Se])NC(=O)c1cccs1` , tested on HCC-2998 colon.
Key: 27.6

Exercise: Please provide the recorded growth for `COc1cc(OC)c(S(=O)(=O)N(CCCl)CCCl)cc1C(=O)/C=C/c1ccc(C)cc1` , tested on HCC-2998 colon.
Key: 93.6

Exercise: Please provide the recorded growth for `CC1=C(CCC=NNC(N)=O)C2=C(C)C3(CC3)[C@@](C)(O)C(=O)C2=C1` , tested on HCC-2998 colon.
Key: -87
